target: T1, Human IL-17A (human, UniProt Q16552 20-155, limits assumed); assay: ELISA, captured antibody, biotin-human IL-17 titrated
T1 construct: Biotinylated in the ELISAs; purified recombinant protein in SPR; also called hIL17A; hIL-17
T1 sequence (Q16552 20-155 limits assumed): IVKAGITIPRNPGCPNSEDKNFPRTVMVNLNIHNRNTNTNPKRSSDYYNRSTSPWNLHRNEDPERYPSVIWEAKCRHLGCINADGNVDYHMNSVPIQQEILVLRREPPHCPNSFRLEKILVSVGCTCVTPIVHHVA
property_label: pEC50
Answer as the number alone; pEC50 is minus log10 of concentration in mol/L.

Answered examples (2):
[[record]]
binder = "IL17-h10F7M-B20 hIgG1/K mut (antibody, V domains shown, Full length human IgG1/kappa, IgG1 mut(234,235); also called h10F7-B20; J439M1S2(H)3 #B20) VH: EVQLVQSGAEVKKPGSSVKVSCKASGYTFTDYEIHWVRQAPGQGLEWMGVNDPESGGTFYNQKFDGRVTLTADESTSTAYMELSSLRSEDTAVYYCTRYDKWYSFEGMDIWGQGTTVTVSS VL: DIQMTQSPSSLSASVGDRVTITCRASSGIISYIDWFQQKPGKAPKRLIYATFDLASGVPSRFSGSGSGTDYTLTISSLQPEDFATYYCRQVGSYPETFGQGTKLEIK"
number = 10.15

[[record]]
binder = "IL17-h10F7M-B13 hIgG1/K mut (antibody, V domains shown, Full length human IgG1/kappa, IgG1 mut(234,235); also called h10F7-B13; J439M1S2(H)3 #B13) VH: EVQLVQSGAEVKKPGSSVKVSCKASGYTFSDYEIHWVRQAPGQGLEWMGVNDPESGGTFYNQKFDGRVTLTADESTSTAYMELSSLRSEDTAVYYCTRYDKYWSFEGMDYWGQGTTVTVSS VL: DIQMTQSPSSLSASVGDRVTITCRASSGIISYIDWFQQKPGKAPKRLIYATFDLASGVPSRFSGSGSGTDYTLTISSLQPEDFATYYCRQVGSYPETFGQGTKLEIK"
number = 10.22


Record summary for IL17-h10F7M10 hIgG1/K mut (antibody, V domains shown, Full length human IgG1/kappa, IgG1 mut(234,235) (HC plasmid pHybE-hCg1,z,non-a,mut(234,235); LC pHybE-hCk); also called J439M1S3R5#10; PR-1262986) VH: EVQLVQSGAEVKKPGSSVKVSCKASGYTFDDYEIHWVRQAPGQGLEWIGVNDPESGGTFYNQKFDGRATLTADKSTSTAYMELSSLRSEDTAVYYCTRYDKWDSFYGMDYWGQGTTVTVSS VL: DIQMTQSPSSLSASVGDRVTITCSASSGSISYIDWFQQKPGKAPKRLIYATFELASGVPSRFSGSGSGTDFTLTISSLQPEDFATYYCHQLGSYPDTFGQGTKLEIK : reported pEC50 = 10.52
